All figures here come from patent US8119637B2.

# TARGET DESC: Fms (Homo sapiens)
# Sequence (P07333 20-972): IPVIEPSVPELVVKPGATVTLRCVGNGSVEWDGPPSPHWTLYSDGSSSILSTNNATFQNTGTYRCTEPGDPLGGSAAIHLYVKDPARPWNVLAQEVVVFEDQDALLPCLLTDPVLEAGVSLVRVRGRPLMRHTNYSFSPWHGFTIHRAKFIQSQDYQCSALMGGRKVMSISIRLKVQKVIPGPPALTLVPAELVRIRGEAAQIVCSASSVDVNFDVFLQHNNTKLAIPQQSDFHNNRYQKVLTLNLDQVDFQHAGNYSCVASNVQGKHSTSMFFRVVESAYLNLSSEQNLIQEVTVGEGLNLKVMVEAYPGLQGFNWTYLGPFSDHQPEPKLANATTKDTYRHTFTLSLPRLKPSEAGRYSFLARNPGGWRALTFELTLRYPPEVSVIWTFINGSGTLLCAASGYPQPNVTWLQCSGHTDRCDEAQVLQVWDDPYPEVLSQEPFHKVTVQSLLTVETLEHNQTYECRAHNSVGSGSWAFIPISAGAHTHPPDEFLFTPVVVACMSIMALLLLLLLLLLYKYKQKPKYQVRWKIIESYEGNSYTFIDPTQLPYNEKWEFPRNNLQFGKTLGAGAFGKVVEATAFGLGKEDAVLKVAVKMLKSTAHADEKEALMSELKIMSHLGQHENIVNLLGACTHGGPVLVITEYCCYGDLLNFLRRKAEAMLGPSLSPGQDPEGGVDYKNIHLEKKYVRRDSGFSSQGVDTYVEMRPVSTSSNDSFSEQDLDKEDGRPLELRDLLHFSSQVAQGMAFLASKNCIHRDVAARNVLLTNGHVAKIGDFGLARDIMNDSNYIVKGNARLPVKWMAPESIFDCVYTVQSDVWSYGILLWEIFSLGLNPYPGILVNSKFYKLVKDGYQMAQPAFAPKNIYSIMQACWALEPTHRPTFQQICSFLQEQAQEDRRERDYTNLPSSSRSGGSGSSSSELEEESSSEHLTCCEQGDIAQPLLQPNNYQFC
MEASURED PROPERTY: IC50

Report measured IC50; entry is COc1ccc(CNc2ccc(Cc3c[nH]c4nccnc34)cn2)cn1 < 10 µM
